Origin of measurements: ChEMBL document CHEMBL4359829

# tgt: DNA topoisomerase 1 (Homo sapiens) (UniProt P11387)
# testSummary: Inhibition of recombinant human Top1 expressed in Saccharomyces cerevisiae null strain RS190 assessed as decrease in relaxation of supercoiled plasmid DNA at 100 uM using supercoiled plasmid DNA as substrate incubated for 15 sec by red staining based DNA relaxation assay relative to camptothecin
Rule: inhibition under 70% gives n, otherwise y.

| compound | tgt | cat |
| --- | --- | --- |
| O=C1Oc2ccc(F)cc2[C@H]2Nc3cccnc3[C@@H](c3ccccc3)[C@H]12 (relative stereo) | DNA topoisomerase 1 (Homo sapiens) (UniProt P11387) | n |
| COc1ccc2nc3c(c(-c4ccccc4)c2n1)COc1ccccc1-3 | DNA topoisomerase 1 (Homo sapiens) (UniProt P11387) | y |
| Brc1ccc2nc3c(c(-c4ccccc4)c2n1)COc1ccccc1-3 | DNA topoisomerase 1 (Homo sapiens) (UniProt P11387) | n |

====

# tgt: UniProt P11387
# Sequence (whole entry): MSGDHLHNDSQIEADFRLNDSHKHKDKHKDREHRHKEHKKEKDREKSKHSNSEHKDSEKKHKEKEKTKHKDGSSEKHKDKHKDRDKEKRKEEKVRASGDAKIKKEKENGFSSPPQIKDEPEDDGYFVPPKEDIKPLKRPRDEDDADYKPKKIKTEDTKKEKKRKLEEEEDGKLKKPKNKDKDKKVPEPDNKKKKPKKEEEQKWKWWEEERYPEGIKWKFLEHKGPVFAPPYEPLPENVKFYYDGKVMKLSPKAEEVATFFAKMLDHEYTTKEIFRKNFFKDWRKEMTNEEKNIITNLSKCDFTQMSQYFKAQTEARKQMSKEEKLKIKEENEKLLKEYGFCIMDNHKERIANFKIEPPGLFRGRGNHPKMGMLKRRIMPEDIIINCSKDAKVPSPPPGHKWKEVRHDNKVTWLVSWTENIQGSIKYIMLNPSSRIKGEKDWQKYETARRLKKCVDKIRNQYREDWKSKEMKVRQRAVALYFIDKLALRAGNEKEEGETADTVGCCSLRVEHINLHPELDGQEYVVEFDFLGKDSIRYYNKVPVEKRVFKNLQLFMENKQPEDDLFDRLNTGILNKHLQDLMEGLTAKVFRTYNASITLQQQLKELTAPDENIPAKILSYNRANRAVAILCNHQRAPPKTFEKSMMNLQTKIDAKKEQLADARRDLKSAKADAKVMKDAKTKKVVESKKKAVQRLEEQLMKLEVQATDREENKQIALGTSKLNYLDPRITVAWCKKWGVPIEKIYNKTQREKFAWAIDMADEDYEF
# testSummary: Inhibition of recombinant human Top1 expressed in Saccharomyces cerevisiae null strain RS190 assessed as decrease in relaxation of supercoiled plasmid DNA at 100 uM using supercoiled plasmid DNA as substrate incubated for 3 min by red staining based DNA relaxation assay relative to camptothecin
Outcome: Yes for inhibition of at least 2%; No for anything lower.

| compound | cat |
| --- | --- |
| O=c1oc2ccccc2c2nc3ccc(Br)nc3c(-c3ccccc3)c12 | Yes |
| c1ccc([C@@H]2c3ncccc3N[C@@H]3c4ccccc4OC[C@@H]23)cc1 (relative stereo) | No |
| COc1ccc2c(n1)[C@@H](c1ccccc1)[C@@H]1C(=O)Oc3ccccc3[C@H]1N2 (relative stereo) | Yes |
| COc1ccc2nc3c(c(-c4ccccc4)c2n1)COc1ccccc1-3 | Yes |
| Cc1ccc2c(c1)[C@H]1Nc3cccnc3[C@@H](c3ccccc3)[C@@H]1CO2 (relative stereo) | Yes |
